target.or.test.system: EAAT1 (Homo sapiens, UniProt P43003)
Construct: expressed in transfected cells; host or cells: HEK293 (ATCC CRL-11268), transient transfection
Sequence (P43003 whole entry, species assumed): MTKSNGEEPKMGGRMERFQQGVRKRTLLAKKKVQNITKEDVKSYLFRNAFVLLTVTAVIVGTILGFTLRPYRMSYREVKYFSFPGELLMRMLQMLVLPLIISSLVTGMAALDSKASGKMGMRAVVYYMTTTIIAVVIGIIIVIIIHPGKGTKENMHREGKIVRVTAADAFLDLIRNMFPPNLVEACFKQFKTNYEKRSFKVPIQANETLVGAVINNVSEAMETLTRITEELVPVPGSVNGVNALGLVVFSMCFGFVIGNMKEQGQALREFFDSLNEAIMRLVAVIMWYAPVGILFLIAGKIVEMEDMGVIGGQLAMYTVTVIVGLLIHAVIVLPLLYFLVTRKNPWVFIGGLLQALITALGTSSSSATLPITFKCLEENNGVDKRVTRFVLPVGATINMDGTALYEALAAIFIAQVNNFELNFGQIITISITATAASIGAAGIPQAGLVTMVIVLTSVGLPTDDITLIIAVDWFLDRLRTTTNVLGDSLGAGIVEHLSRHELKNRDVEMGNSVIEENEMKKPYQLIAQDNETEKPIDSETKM
measurement.protocol: Electrophysiology specificity experiment in transfected HEK293 cells, EAAT1
Type: cell-based
experimental.context: apparent Ki, HEK293, internal solution 10 mM glutamate, mean ± SD
pKi: −log10 of the molar value.
measurement.type: pKi

These solved cases illustrate the format of a correct answer.
| molecule | pKi |
| --- | --- |
| Cc1ccccc1-c1ccc(C(=O)O[C@@H]2CN[C@H](C(=O)O)C2)cc1C [SN 11] | 5.32 |
| O=C(O[C@@H]1CN[C@H](C(=O)O)C1)c1ccc(-c2ccccc2)cc1 [SN 05] | 5.43 |

[1] O=C(O)[C@@H]1C[C@H](NCc2ccc(-c3ccccc3)cc2)CN1 [SN 40]
[2] O=C(O)[C@@H]1C[C@H](OCc2ccc(-c3ccccc3)cc2)CN1 [SN 39]
[3] N[C@@H](COC(=O)c1ccc(NC(=O)c2ccccc2)cc1)C(=O)O [SN 25]
[4] O=C(O[C@@H]1CN[C@H](C(=O)O)C1)c1ccc(-c2ccc(F)cc2)cc1 [SN 08]
query: // ascending sort on recorded pKi A complete answer lists every label in the requested sequence.
result: 3, 1, 2, 4

----------
target.or.test.system: EAAT1 (Homo sapiens, UniProt P43003)
measurement.protocol: Electrophysiology specificity experiment in transfected HEK293 cells, EAAT1
experimental.context: apparent Ki, HEK293, internal solution 10 mM glutamate, mean ± SD
pKi: −log10 of the molar value.
measurement.type: pKi

| compound | pKi |
| --- | --- |
| O=C(O[C@@H]1CN[C@H](C(=O)O)C1)c1ccc(C(O)c2ccccc2)cc1 (stereo partly drawn) | 4.40 |
| Cc1ccccc1-c1ccc(C(=O)O[C@@H]2CN[C@H](C(=O)O)C2)cc1 | 6.00 |
| O=C(Nc1cccc(C(=O)O[C@@H]2CN[C@H](C(=O)O)C2)c1)c1ccccc1 | 4.31 |
| O=C(Nc1ccc(C(=O)O[C@@H]2CN[C@H](C(=O)O)C2)cc1)c1ccc(C(F)(F)F)cc1 | 5.89 |
| O=C(O[C@@H]1CN[C@H](C(=O)O)C1)c1ccc(-c2ccccn2)cc1 | 4.91 |
| O=C(O[C@@H]1CN[C@H](C(=O)O)C1)c1ccc(-c2ccccc2)nc1 | 4.99 |

[I] O=C(O)[C@H]1NC[C@@H](NCc2ccc(-c3ccccc3)cc2)[C@@H]1O
[II] O=C(O[C@@H]1CN[C@H](C(=O)O)C1)c1ccc(-c2ccc(C(F)(F)F)cc2)cc1
query: Determine, for I and II , which has the greater value of pKi. The response must carry the label of the picked entry.
result: II

----------
target.or.test.system: hASCT1 (Homo sapiens, UniProt P43007)
Construct: expressed in transfected cells; host or cells: HEK293 (ATCC CRL-11268), transient transfection
Sequence (P43007 whole entry): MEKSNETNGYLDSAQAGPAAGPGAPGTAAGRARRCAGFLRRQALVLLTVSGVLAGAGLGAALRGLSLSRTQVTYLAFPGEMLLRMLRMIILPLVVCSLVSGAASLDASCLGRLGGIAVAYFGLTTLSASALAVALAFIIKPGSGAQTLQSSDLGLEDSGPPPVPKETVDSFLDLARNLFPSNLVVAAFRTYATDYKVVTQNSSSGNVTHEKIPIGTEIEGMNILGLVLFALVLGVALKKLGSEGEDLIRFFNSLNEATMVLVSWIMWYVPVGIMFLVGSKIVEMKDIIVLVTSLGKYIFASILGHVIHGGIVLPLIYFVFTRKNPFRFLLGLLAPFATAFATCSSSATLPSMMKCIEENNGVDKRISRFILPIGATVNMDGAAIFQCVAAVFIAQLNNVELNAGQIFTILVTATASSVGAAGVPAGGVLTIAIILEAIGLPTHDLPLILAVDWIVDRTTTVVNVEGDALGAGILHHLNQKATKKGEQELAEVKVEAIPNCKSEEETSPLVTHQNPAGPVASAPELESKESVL
measurement.protocol: Electrophysiology (whole-cell current recording) of transfected HEK293 cells, hASCT1
Assay type: cell-based
experimental.context: apparent Ki in the absence of substrate, HEK293, mean ± SD; read-out: Ki hASCT1
pKi: −log10 of the molar value.
measurement.type: pKi

Some solved cases for reference:
| molecule | target.or.test.system | pKi |
| --- | --- | --- |
| O=C(Nc1ccc(C(=O)O[C@@H]2CN[C@H](C(=O)O)C2)cc1)c1ccc(C(F)(F)F)cc1 | hASCT1 (Homo sapiens, UniProt P43007) | 5.07 |
| O=C(O[C@@H]1CN[C@H](C(=O)O)C1)c1ccc(-c2ccccc2)cc1 | hASCT1 (Homo sapiens, UniProt P43007) | 5.56 |
| O=C(Nc1ccc(CN[C@@H]2CN[C@H](C(=O)O)C2)cc1)c1ccccc1 | hASCT1 (Homo sapiens, UniProt P43007) | 4.70 |
| O=C(O[C@@H]1CN[C@H](C(=O)O)C1)c1ccc(Oc2ccccc2)cc1 | hASCT1 (Homo sapiens, UniProt P43007) | 5.24 |
| O=C(O[C@@H]1CN[C@H](C(=O)O)C1)c1ccc(-c2ccc(F)cc2)cc1 | hASCT1 (Homo sapiens, UniProt P43007) | 6.05 |

[I] Cc1ccccc1-c1ccc(C(=O)O[C@@H]2CN[C@H](C(=O)O)C2)cc1C
[II] O=C(O[C@@H]1CN[C@H](C(=O)O)C1)c1ccc(-c2ccccc2)nc1
query: Returns: the argument ( I or II ) having the larger pKi. Write down the label attached to your selection.
result: II
(II: 5.36, I: 5.09)

[1] O=C(O[C@@H]1CN[C@H](C(=O)O)C1)c1ccc(-c2ccc(C(F)(F)F)cc2)cc1
[2] O=C(Nc1cccc(C(=O)O[C@@H]2CN[C@H](C(=O)O)C2)c1)c1ccccc1
query: Given 1 and 2 , report the one with the higher recorded pKi. Record your answer as the label of the chosen record.
result: 1
(1: 6.36, 2: 5.00)

[I] O=C(Nc1cccc(C(=O)O[C@@H]2CN[C@H](C(=O)O)C2)c1)c1ccc(C(F)(F)F)cc1
[II] O=C(Nc1cccc(C(=O)N[C@@H]2CN[C@H](C(=O)O)C2)c1)c1ccccc1
[III] Cc1ccccc1-c1ccc(C(=O)O[C@@H]2CN[C@H](C(=O)O)C2)cc1
[IV] O=C(O[C@@H]1CN[C@H](C(=O)O)C1)c1ccc(C(O)c2ccccc2)cc1 (some centres unmarked)
query: Order these by pKi, descending, and give the full ranking. When ranking, write the labels in the order the request describes.
result: III, I, IV, II

----------
target.or.test.system: hASCT2 (Homo sapiens)
Construct: expressed in transfected cells; host or cells: HEK293 (ATCC CRL-11268), transient transfection
Sequence (Q15758 whole entry): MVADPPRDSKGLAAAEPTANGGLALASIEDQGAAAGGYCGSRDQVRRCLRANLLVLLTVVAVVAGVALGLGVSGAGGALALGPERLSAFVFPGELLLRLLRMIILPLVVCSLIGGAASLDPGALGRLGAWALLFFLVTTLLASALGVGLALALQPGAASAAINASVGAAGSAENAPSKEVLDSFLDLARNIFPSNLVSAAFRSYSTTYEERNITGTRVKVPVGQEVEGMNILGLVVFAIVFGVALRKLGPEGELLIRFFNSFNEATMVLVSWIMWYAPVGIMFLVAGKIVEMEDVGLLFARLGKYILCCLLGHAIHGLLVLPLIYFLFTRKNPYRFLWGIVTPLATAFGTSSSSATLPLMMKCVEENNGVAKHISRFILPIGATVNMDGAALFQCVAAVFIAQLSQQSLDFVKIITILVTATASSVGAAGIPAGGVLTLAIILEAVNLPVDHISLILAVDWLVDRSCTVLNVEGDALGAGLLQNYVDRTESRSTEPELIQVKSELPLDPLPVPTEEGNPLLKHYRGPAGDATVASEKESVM
measurement.protocol: Electrophysiology (whole-cell current recording) of transfected HEK293 cells, hASCT2
Assay type: cell-based
experimental.context: apparent Ki in the absence of substrate, HEK293; nM; read-out: Ki hASCT2
measurement.type: Ki

Reported Ki (hASCT2 (Homo sapiens)) for entry O=C(Nc1cccc(C(=O)O[C@@H]2CN[C@H](C(=O)O)C2)c1)c1ccc(C(F)(F)F)cc1 [SN 17] is < 100 nM

----------
target.or.test.system: EAAT2 (Homo sapiens, UniProt P43004)
Construct: expressed in transfected cells; host or cells: HEK293 (ATCC CRL-11268), transient transfection
measurement.protocol: Electrophysiology specificity experiment in transfected HEK293 cells, EAAT2
Assay type: cell-based
experimental.context: Table 3, dihydroxyproline derivatives; read-out: Ki All DNA: EAAT2
measurement.type: Ki (µM)
// return numeric value only (unit: µM, not printed)

Record O=C(O[C@]1(CO)CN[C@H](C(=O)O)C1)c1ccc(-c2ccccc2)cc1 , field Ki: 21.4

----------
target.or.test.system: hASCT2 (Homo sapiens)
Construct: expressed in transfected cells; host or cells: HEK293 (ATCC CRL-11268), transient transfection
measurement.protocol: Electrophysiology (whole-cell current recording) of transfected HEK293 cells, hASCT2
Assay type: cell-based
experimental.context: Table 3, dihydroxyproline derivatives; read-out: Ki All DNA: hASCT2
measurement.type: Ki (µM)

Example results:
| compound | Ki [µM] |
| --- | --- |
| O=C(OC[C@]1(O)CN[C@H](C(=O)O)C1)c1ccc(-c2ccccc2)cc1 [SN65] | 30.5 |
| O=C(O[C@]1(CO)CN[C@H](C(=O)O)C1)c1ccc(-c2ccc(C(F)(F)F)cc2)cc1 [SN75] | 8.07 |
| O=C(OC[C@@]1(O)CN[C@H](C(=O)O)C1)c1ccc(C(=O)c2ccccc2)cc1 [SN61] | 108 |

[P] O=C(OC[C@@]1(O)CN[C@H](C(=O)O)C1)c1ccc(C(O)c2ccccc2)cc1 (stereo partly drawn) [SN63]
[Q] O=C(O[C@]1(CO)CN[C@H](C(=O)O)C1)c1ccc(-c2ccccc2)cc1 [SN73]
[R] O=C(O[C@]1(CO)CN[C@H](C(=O)O)C1)c1ccc(Oc2ccccc2)cc1 [SN76]
query: rank_up(items): orders items by reported Ki in ascending numerical order. Give the labels in the order specified.
result: Q, R, P

[P] O=C(OC[C@@]1(O)CN[C@H](C(=O)O)C1)c1ccc(-c2cccc(F)c2)cc1F [SN60]
[Q] O=C(OC[C@]1(O)CN[C@H](C(=O)O)C1)c1ccc(-c2ccc(F)cc2)cc1 [SN66]
query: Which shows the larger Ki value: P or Q ? Response format: the label of the selected entry.
result: Q

[A] O=C(O[C@]1(CO)CN[C@H](C(=O)O)C1)c1ccc(-c2ccc(F)cc2)cc1 [SN74]
[B] O=C(OC[C@]1(O)CN[C@H](C(=O)O)C1)c1ccc(-c2ccc(C(F)(F)F)cc2)cc1 [SN67]
query: I'm curious, which of these has a smaller Ki number: A or B ? Select an item and report its label.
result: A

Source of measurements: patent US20230416199A1
